test system: MDA-MB-231; test: NCI tumour cell line growth inhibition, 48 h
Active and inactive are the calls of the source. Cut-off read from the data, not from the text of the source: active = GI50 up to about 1.1 µM and inactive = higher.
endpoint_name: GI50

What value of GI50 on MDA-MB-231 does CCOP(=O)(CC(=O)C1CC1)OCC have?
> 100 µM (inactive)

# get_value(readout= GI50, system= MDA-MB-231) for c1cc2c(cc1NC1=NCCO1)OCO2
> 100 µM (inactive)

Notebook entry, MDA-MB-231 assay: GI50 of COC(=O)/C=C1/OC(c2ccccc2)=C(C)C1=O = ?
4.86 µM (inactive)

Request - read-out GI50 | tested on MDA-MB-231 | compound C(=C\c1ccccc1)/C=N/c1nc2cc3sc(/N=C/C=C/c4ccccc4)nc3cc2s1
> 100 µM (inactive)

Form field: GI50 recorded for CN(C)CC1CCC/C(=C\c2ccc(Cl)cc2)C1=O (stereo not given) with MDA-MB-231 (enter value)
3.05 µM (inactive)

Lab note: need GI50 with MDA-MB-231 for entry COC(=O)c1cc2c3c(cc(NCCN)c2[nH]1)N(C(=O)c1cc2cc(OC)c(OC)c(OC)c2[nH]1)CC3CCl (stereo not given) , please look it up.
0.0638 µM (active)

Form field: GI50 recorded for COc1cc2c(c(OC)c1)C(=O)O[C@H](C)CCCC/C=C/C2 with MDA-MB-231 (enter value)
10.9 µM (inactive)

###

tested on: Hs-578T; assay: NCI tumour cell line growth inhibition, 48 h
Activity calls are given as the source filed them. No stated cut-off is given here; in the data, active = GI50 up to about 1.1 µM and inactive = higher.
We begin with a simple list: items and their reported GI50.

Below, each entry is followed by its recorded GI50 result.
CC(=O)OC1C[C@@H](C)C2(CC(c3ccoc3)OC2=O)C2CCC(O)C3(CO3)C12CO (some centres undefined)
> 100 µM (inactive)
OCC1CCCCCCCCCCC12SCCCS2 (centres undefined)
> 100 µM (inactive)
COc1cc(C2S/C(=C/c3ccccc3)C(=O)N2c2cccc(NC(C)=O)c2)cc(OC)c1OC (centres undefined)
15.3 µM (inactive)
CC(=O)O[C@H]1C[C@]2(C)C(CCC3O[C@@]32C)[C@@]2(CC(c3ccoc3)OC2O)[C@@H]1C (some centres undefined)
> 100 µM (inactive)

Which GI50 is listed for CCOC(=O)c1nc2cc(C(F)(F)F)ccc2nc1Nc1ccc(OC)c(OC)c1 ?
41.7 µM (inactive)

Entry COC(=O)c1c2c(cc3c1CC1(C3)Cc3cc4c(c(C(=O)OC)c3C1)CCCC4)CCCC2 : reported GI50 = ?
> 100 µM (inactive)

Reported GI50 for Cc1cn2c(/C=C3/C(=O)Nc4ccccc43)c(-c3ccccc3)nc2s1 : what is it?
27.7 µM (inactive)

Find the recorded GI50 belonging to Cc1ccc2c(/C=C/c3ccc(N(C)C)cc3)ccc(C(C)C)cc1-2 and report it.
> 100 µM (inactive)

Can you share its GI50? I mean this compound: OCCSCc1cc2c(O)c(c1)Cc1cc(CSCCO)cc(c1O)Cc1cc(CSCCO)cc(c1O)Cc1cc(CSCCO)cc(c1O)C2
8.43 µM (inactive)

###

test system: KM12; test: NCI tumour cell line growth inhibition, 48 h
Active and inactive are the calls of the source. No stated cut-off is given here; in the data, active = GI50 up to about 1.1 µM and inactive = higher. *1 amine or outer side, *2 acyl side, *3 side chain or, on linkers, in order; H or OH if unused. Where a SMILES comes first, the peptide text is derived from it. Bridges are numbered along the chain shown (N, C = ends). [ ]: non-standard residue; d: D form. The star is where a group is joined. ξ: configuration not given here. ξOrn(4,5-diOH) = O=C(C(CC(O)C(O)N[*:3])N[*:1])[*:2]; ξhTyr(βξ-OH,γξ-OH) = NC(C(=O)O)C(O)C(O)c1ccc(O)cc1; ξPro(3ξ-OH,4ξ-Me) = CC1CNC(C(=O)O)C1O; X55 = CCCCC/C=C/C/C=C\CCCCCCCC(=O)*; Hyp = O=C(O)[CH]1C[CH](O)CN1
A correct response names exactly one class from true = active, false = inactive

CCOC(=O)C1=CNC(C(=O)OCC)C1c1cccn1-c1ccc(Cl)cc1[N+](=O)[O-] (stereo not given)
false
CC1=NN(c2nc(N)nc(/C(C#N)=C\c3ccc([N+](=O)[O-])s3)n2)C(C)(C)C1
true
CCCCC/C=C/C/C=C\CCCCCCCC(=O)NC1CC(O)C(O)NC(=O)C2C(O)C(C)CN2C(=O)C(C(C)O)NC(=O)C(C(O)C(O)c2ccc(O)cc2)NC(=O)C2CC(O)CN2C(=O)C(C(C)O)NC1=O (stereo not drawn) (X55-[ξOrn(4,5-diOH)]T[Hyp][ξhTyr(βξ-OH,γξ-OH)]T[ξPro(3ξ-OH,4ξ-Me)]; lactam 1-C; configuration not given here)
false
CCC(=O)C(CCN1CCC2(CCCc3ccccc32)CC1)(c1ccccc1)c1ccccc1
false

Recorded call for Brc1ccccc1C1SCc2nc3ccccc3n21 (stereo not given) ?
false

###

// GI50 lookup, one value per entry
tested on: UACC-62; assay: NCI tumour cell line growth inhibition, 48 h
Active and inactive are the calls of the source. Cut-off read from the data, not from the text of the source: active = GI50 up to about 1.1 µM and inactive = higher.

Reference set (5 entries):
COc1cc2nc(NCCCCCNC(=O)c3ccco3)nc(N)c2cc1OC
22.2 µM (inactive)
CN1CC2=C(N=C(S)NC2c2ccccc2)/C(=C/c2ccccc2)C1 (stereo not drawn)
28.5 µM (inactive)
Cc1c(-c2nnc(-c3ccc(Cl)cc3)o2)c(=O)n(-c2ccccc2)n1C
> 100 µM (inactive)
Oc1c2c(nc3cc4c(cc13)OCO4)-c1ccccc1CC2
> 100 µM (inactive)
CC12O[C@H](c3ccccc3)[C@H](c3ccccc3)N1C(=O)C1(C(=O)OCc3ccccc3)CC12 (stereo partly drawn)
> 100 µM (inactive)

Continue with the molecule presented below.
// GI50 lookup, key: COc1cc(Nc2cnc3ccc(N)cc3n2)cc(OC)c1OC
69.3 µM (inactive)

###

system: SW-620; assay: NCI tumour cell line growth inhibition, 48 h
The source made the active and inactive calls. Cut-off read from the data, not from the text of the source: active = GI50 up to about 1.1 µM and inactive = higher. Where a SMILES comes first, the peptide text is derived from it. Bridges are numbered along the chain shown (N, C = ends). [ ]: non-standard residue; d: D form. The star is where a group is joined. ξ: configuration not given here. ξNMePhe(4-NMe2) = CNC(Cc1ccc(N(C)C)cc1)C(=O)O; Picolinoyl(3-OH) = O=C(c1ncccc1O)*; ξPip(4-oxo) = O=C1CCNC(C(=O)O)C1; Phg = N[CH](C(=O)O)c1ccccc1; Abu = CC[CH](N)C(=O)O
Thanks in advance; please answer with one of these: class 1 = active, class 0 = inactive

CC1=C/C(O)CC(=O)Cc2nc(co2)C(=O)N2CCC=C2C(=O)OC(C(C)C)C(C)/C=C/C(=O)NC\C=C\1.CCC1NC(=O)C(NC(=O)c2ncccc2O)C(C)OC(=O)C(c2ccccc2)NC(=O)C2CC(=O)CCN2C(=O)C(Cc2ccc(N(C)C)cc2)N(C)C(=O)C2CCCN2C1=O (stereo unspecified) ({Picolinoyl(3-OH)}-T[Abu]P[ξNMePhe(4-NMe2)][ξPip(4-oxo)][Phg]; ester 1-C; configuration not given here)
class 0

Dear all, I need the recorded test outcome for Cc1ccc2c(/C=C/c3ccc(N(C)C)cc3)ccc(C(C)C)cc1-2 , thank you.
class 0

Each compound tested received a call. Report the one for COCCCNC(=O)C1C(=O)N(CCCOC)C(=O)/C1=N\N (stereo unspecified) .
class 0

Recorded call for O=C(Nn1cc(F)c(=O)[nH]c1=O)C12CC3CC(CC(C3)C1)C2 ?
class 0

Call for entry COC(=O)c1ccccc1CC1Cc2c(C)ccc(C)c2C1=O (stereo unspecified) :
class 0

Identify the outcome logged in this assay for the compound shown: O=C(CCN1CCCCC1CCO)Nc1ccc2c(c1)C(=O)c1ccc(NC(=O)CCN3CCCCC3CCO)cc1C2=O (stereo unspecified)
class 0

###

tested on: T47D; test: NCI tumour cell line growth inhibition, 48 h
Active and inactive are the calls of the source. Cut-off read from the data, not from the text of the source: active = GI50 up to about 1.1 µM and inactive = higher.
endpoint_name: GI50

In the examples that follow, each entry is paired with its recorded GI50.
COC(=O)c1c2c(cc3c1CC1(C3)Cc3cc4c(c(C(=O)OC)c3C1)CCCC4)CCCC2
> 100 µM (inactive)
O=S(=O)(/N=C(\NO)Nc1ccc(Cl)cc1)C1CC=C(c2ccon2)S1 (stereo not given)
12.5 µM (inactive)
COc1cc(CNc2c3ccccc3nc3ccccc23)cc(OC)c1OC
6.38 µM (inactive)
NC(=O)CNC(=O)[C@@H]1C[C@@H](OCCC(=O)O)CN1C(=O)OCc1ccccc1
> 100 µM (inactive)

Let's switch to this compound now.
Provide the documented GI50 with T47D as the system for CCOC(=O)c1nc2cc(C(F)(F)F)ccc2nc1Nc1ccc(OC)c(OC)c1
71.3 µM (inactive)

###

tested on: T47D; assay: NCI tumour cell line growth inhibition, 48 h
Calls of active or inactive are those of the source. Rule as the data show it: active = GI50 up to about 1.1 µM and inactive = higher.
Pick one and only one: true (1) = active, false (0) = inactive

Take a look at these entries with their results.
CC(C)(C)c1ccc(-c2nc3ccc([N+](=O)[O-])cc3c(=O)o2)cc1
false (0)
Cc1nc2c(cc1C(=O)NN)c(=O)n(C)c(=O)n2C
false (0)

Please let me know the test result on file for CCOP(=O)(COCCn1nc(Br)c(=O)[nH]c1=O)OCC .
false (0)

Outcome? CCOC(=O)c1nc2ccccc2nc1Nc1ccc(C(=O)OC)s1
false (0)

Hi team, can someone confirm the assay call for CCOC(=O)/C(C#N)=C(/NS(=O)(=O)c1cc(C)c(Cl)cc1[S-])[n+]1ccc(N(C)C)cc1 ?
false (0)

What was the test verdict on C[C@@H]1CCC2[C@@H](C)C(=O)O[C@@H]3C4C[C@@H]1[C@@]23OO[C@@]4(C)O (some centres undefined) ?
false (0)

Assay outcome for COc1cc(/C=C2\CCC(CN(C)C)C2=O)ccc1OC(=O)c1ccccc1 (centres undefined) : what was it?
false (0)

Fill in: this test's call for CC1OC(OC2C(O[C@H]3CC[C@@]4(C)C(=CC[C@H]5[C@@H]6C[C@@H]7O[C@]8(CC[C@@H](C)CO8)[C@@H](C)[C@@H]7[C@@]6(C)CC[C@@H]54)C3)OC(CO)C(OC3OC(CO)C(O)C3O)C2O)C(O)C(O)C1O (some centres undefined) is ___
true (1)

Test call, this molecule: CCOC(=O)c1nc2ccc(C(F)(F)F)cc2nc1Oc1ccc(OC)cc1
false (0)
